Tested on: Botrytis cinerea
test: Eggplant grey mold
Format: in vivo
Design: scale not given here
condition.summary: eggplant sprayed with 20 ppm, inoculated 24 h later, rated after 3-4 days
quantity.kind: Disease Control Rating at 20 ppm
Please state the value as a number alone, without comment.

The compound Cn1cc(C(=O)Nc2ccccc2C=C2CCCCC2)c(C(F)F)n1 [Example 116] on Botrytis cinerea: Disease Control Rating at 20 ppm was 0

Item Cn1cc(C(=O)Nc2ccc(F)cc2C2CCCCC2)c(C(F)(F)F)n1 [Example 12] ; assay system Botrytis cinerea; Disease Control Rating at 20 ppm reported as 1

So the reported Disease Control Rating at 20 ppm for Cn1cc(C(=O)Nc2ccccc2C2CCCCCCC2)c(C(F)(F)F)n1 [Example 25] , on Botrytis cinerea, turned out to be 1

Entry COc1ccc(C2CCCCC2)c(NC(=O)c2cn(C)nc2C(F)(F)F)c1 [Example 32] , tested on Botrytis cinerea, has a reported Disease Control Rating at 20 ppm of 0

The observed Disease Control Rating at 20 ppm for Cn1cc(C(=O)Nc2ccccc2C2=CCCCCCC2)c(C(F)F)n1 [Example 119] when tested with Botrytis cinerea stands at 0

Assay Botrytis cinerea, sample Cn1cc(C(=O)Nc2ccccc2C=C2CCCCC2)c(C(F)(F)F)n1 [Example 40] , Disease Control Rating at 20 ppm read: 0

Measured Disease Control Rating at 20 ppm for this entry Cn1cc(C(=O)Nc2ccccc2C2CCCCCC2)c(C(F)F)n1 [Example 9] on Botrytis cinerea: 0

Entry Cn1cc(C(=O)Nc2ccccc2C2=CCCCCCC2)c(C(F)(F)F)n1 [Example 120] under Botrytis cinerea had Disease Control Rating at 20 ppm of 0

Field Disease Control Rating at 20 ppm (Botrytis cinerea), entry Cc1nn(C)c(F)c1C(=O)Nc1ccccc1C1CCCCCC1 [Example 113] : 1
